- System: TAB113
- procedure.details: qHTS profiling for inhibitors of Plasmodium falciparum proliferation (AID 504749); also: nearly all actives have a fitted effect of over 60% in size; also: potency is read from the fitted curve at half-maximal effect
- condition.info: P. falciparum in erythrocytes, SYBR Green DNA, 72 h; series mostly up to 28.7 µM
Results filed as inconclusive are left out. Calls of active or inactive are those of the source. Calls follow the shape of the dose curve; as a rule, active = well fitted inhibition curve with a large enough effect; inconclusive = small, poorly fitted or top-dose-only effect; inactive = flat fitted curve, though single readings scatter. Peptide text beside a SMILES is read from it.
measured.parameter: Potency

Some entries whose results are on file:
compound	Potency
Nc1nc(Cl)nc2c1ncn2[C@H]1C[C@H](O)[C@@H](CO)O1	inactive
O=c1oc2cc(O)ccc2s1	inactive
Nc1cccc2c1CN(C1CCC(=O)NC1=O)C2=O (stereo unspecified)	inactive
Cc1cc(=O)c2c(O)c3c(O)cc(=O)c4c3c3c(cc(O)c1c23)C(C)(C)C=4O	1580 nM (active)
c1ccc2[nH]c(-c3cscn3)nc2c1	inactive
CC1=C(C)C(=O)C(C(CCCCCC(=O)O)c2ccccc2)=C(C)C1=O (stereo unspecified)	inactive

Find the recorded Potency belonging to CC1(C)CCC(C)(C)c2cc(NC(=O)c3ccc(C(=O)O)cc3)ccc21 and report it.
inactive

Now consider Cc1c(OCC(F)(F)F)ccnc1CS(=O)c1nc2ccccc2[nH]1 (stereo unspecified) and answer again.
inactive

Can you handle COC(=O)[C@H](Cc1ccccc1)NC(=O)[C@@H](N)CC(=O)O (H-Asp-Phe-OMe) next?
inactive

Another compound: CC(C)[C@H](N)C(=O)OCCOCn1cnc2c(=O)[nH]c(N)nc21
inactive

Same lookup for CCCCN(CCCC)CCC(O)c1cc2c(Cl)cc(Cl)cc2c2cc(C(F)(F)F)ccc12 (stereo unspecified) , please.
7.9 nM (active)

Attribution: PubChem BioAssay (NCATS)
